- Test Description: Drug metabolism in rat liver microsomes at 15 uM after 30 mins
- Assay type: ADME, Microsome
- Experimental Setup: read-out: Drug metabolism
Outcome Measure: metabolised at 0.5 h, 15 µM (%)

{"columns": ["Smiles Representation", "metabolised at 0.5 h, 15 µM (%)"],
 "data": [
  ["CC(C)NCC1(O)CN(C(=O)c2ccc(F)c(F)c2Nc2ccc(I)cc2F)C1", 40.5],
  ["C[C@H](N)C1(O)CN(C(=O)c2ccc(F)c(F)c2Nc2ccc(I)cc2F)C1", -4.5],
  ["O=C(c1ccc(F)c(F)c1Nc1ccc(I)cc1F)N1CC(O)([C@@H]2CCCCN2)C1", 22.4]
]}

[A] O=C(c1ccc(F)c(F)c1Nc1ccc(I)cc1F)N1CC(O)C1
[B] NCC1(O)CN(C(=O)c2ccc(F)c(F)c2Nc2ccc(I)cc2F)C1
[C] CCNCC1(O)CN(C(=O)c2ccc(F)c(F)c2Nc2ccc(I)cc2F)C1
Ask: Sequence the entries by metabolised at 0.5 h, 15 µM, beginning with the highest number. Reply: labels, ordered per the request.
Result: A, C, B
(A: 80.1%, C: 31.5%, B: 16.2%)

* * *

- Test Description: Drug uptake in brain of nude NCr mouse xenografted with human MDA-MB-231T cells at 30 mg/kg, po measured after 24 hrs by LC-MS analysis
- Assay type: ADME, organism-based
- Design: dose 30 mg/kg, route oral
- Experimental Setup: read-out: Drug uptake
Outcome Measure: concentration at 24 h (nM)
Enter your answer as a number in nM; do not include the unit.

Entry NCC1(O)CN(C(=O)c2ccc(F)c(F)c2Nc2ccc(I)cc2F)C1 — recorded concentration at 24 h = 1240

* * *

- Test Description: Plasma concentration in nude NCr mouse xenografted with human MDA-MB-231T cells at 30 mg/kg, po measured after 24 hrs by LC-MS analysis
- Type: ADME, organism-based
- Parameters: dose 30 mg/kg, route oral
Outcome Measure: concentration at 24 h (nM)
Enter your answer as a number in nM; do not include the unit.

Entry NCC1(O)CN(C(=O)c2ccc(F)c(F)c2Nc2ccc(I)cc2F)C1 — recorded concentration at 24 h = 30

* * *

- Test Description: Drug uptake in brain of nude NCr mouse xenografted with human MDA-MB-231T cells at 100 mg/kg, po measured after 24 hrs by LC-MS analysis
- Format: ADME, organism-based
- Design: dose 100 mg/kg, route oral
- Experimental Setup: read-out: Drug uptake
Outcome Measure: concentration at 24 h (nM)
Enter your answer as a number in nM; do not include the unit.

Entry O=C(c1ccc(F)c(F)c1Nc1ccc(I)cc1F)N1CC(O)([C@@H]2CCCCN2)C1 — recorded concentration at 24 h = 220

* * *

- Test Description: Drug metabolism in human liver microsomes at 15 uM after 30 mins
- Type: ADME, Microsome
- Experimental Setup: read-out: Drug metabolism
Outcome Measure: metabolised at 0.5 h, 15 µM (%)

{"columns": ["Compound", "Outcome Measure", "Uom", "Value Measured"],
 "data": [
  ["CC(C)NCC1(O)CN(C(=O)c2ccc(F)c(F)c2Nc2ccc(I)cc2F)C1", "metabolised at 0.5 h, 15 µM", "%", 35.8]
]}

[A] O=C(c1ccc(F)c(F)c1Nc1ccc(I)cc1F)N1CC(O)C1
[B] CCNCC1(O)CN(C(=O)c2ccc(F)c(F)c2Nc2ccc(I)cc2F)C1
[C] O=C(c1ccc(F)c(F)c1Nc1ccc(I)cc1F)N1CC(O)([C@@H]2CCCCN2)C1 [COBIMETINIB]
[D] C[C@H](N)C1(O)CN(C(=O)c2ccc(F)c(F)c2Nc2ccc(I)cc2F)C1
Ask: Sort low-to-high on metabolised at 0.5 h, 15 µM, please. Reply: labels, ordered per the request.
Result: D, C, A, B
